Heads up, these molecules all have IC50 values measured for PDK1 (Homo sapiens).
Provide only the numeric value, understood in nM.

Request: GET /values?readout=IC50&item= Cn1cc(-c2cnc3[nH]cc(-c4cc(C(C)(O)c5cccc(F)c5)nc(N)n4)c3n2)cn1 (stereo not drawn)
Result: 71

Request: Request the reported IC50 associated with COCOC(C)(c1cc(-c2c[nH]c3ncc(-c4cnn(C)c4)nc23)nc(N)n1)c1ccccc1F (stereo not drawn)
Result: 77

---
Request: Bench note: what IC50 did COCOC(C)(c1ccccc1)c1cc(-c2c[nH]c3ncc(-c4cnn(C)c4)nc23)nc(N)n1 (stereo not drawn) show?
Result: 90

Request: Item under review: CCC(O)(c1cc(-c2c[nH]c3ncc(-c4cnn(C)c4)nc23)nc(N)n1)c1ccncc1F (stereo not drawn) . Reported IC50?
Result: 44

Request: Reported IC50, molecule Cn1cc(-c2cnc3[nH]cc(-c4cc(C(C)(O)c5ccccc5)nc(N)n4)c3n2)cn1 (stereo not drawn) : ____
Result: 55

Request: What value of measured IC50 is listed for CCC(OCOC)(c1cc(-c2c[nH]c3ncc(-c4cnn(C)c4)nc23)nc(N)n1)c1ccncc1F (stereo not drawn) ?
Result: 90

src = patent US8999986B2
